Values from the supplement of paper PMC8671470

System: KU-812
Experiment: cell viability (% survival relative to DMSO control, bortezomib = 0%); higher = less cytotoxic
Details: 100 nM; 72 h
Counter-ions that a name gives are not always drawn.
readout_kind: cell viability (%)
All answers are understood in %, so give the number only.

Could you share which cell viability value was measured for CC(C)c1onc(-c2c(Cl)cccc2Cl)c1COc1ccc(/C=C/c2cccc(C(=O)O)c2)c(Cl)c1 ?
90.7

Another molecule to look at: COc1ccc2c(C(=S)N(C)CC(=O)O)cccc2c1C(F)(F)F
99.8

Request: COC(=O)[C@]12CCC(C)(C)C[C@H]1[C@H]1C(=O)C=C3[C@@]4(C)C=C(C#N)C(=O)C(C)(C)[C@@H]4CC[C@@]3(C)[C@]1(C)CC2
113

Moving on to the next molecule: NC(=O)c1cccc(-c2cccc(OC(=O)NC3CCCCC3)c2)c1
103

Then Cc1cc(CS(=O)(=O)c2ccccc2)cc(OCc2ccc(CN3CCC[C@@H]3CO)cc2)c1 [PF-543 hydrochloride] ?
97.7

Okay, and Cc1c(-c2ccc(-c3ccccc3F)cc2)nc2ccc(F)cc2c1C(=O)O ?
93.1

Again, but for COc1ccc(-c2ccccc2)cc1NS(=O)(=O)c1cc(Cl)cc(Cl)c1O
105

For O[C@H]1[C@H]2[C@H](O)CCCN2C[C@H]1O then?
100

Ok, now CCOC(=O)c1ccc(-c2ccc(OC(=O)N(C)Cc3cccc(-c4ccncc4)c3)cc2)cc1
105

Check O=C(O)c1cc(Cl)cc(Cl)c1O too.
95.8

Next entry: CCCCCCCCCCCC(=O)c1c(O)c(C(=O)CCCCCCCCCCC)c(O)c(C2CC(c3ccc(O)cc3)Oc3cc(O)ccc32)c1O (stereo unspecified)
110

Further, for O=C(O)c1cc(N=Nc2ccc(S(=O)(=O)Nc3ccccn3)cc2)ccc1O ?
107

What about CCCCN1C[C@H](O)[C@@H](O)[C@H](O)[C@H]1CO ?
89.5

// query: CC1(C)[C@@H](O[C@H]2O[C@H](C(=O)O)[C@@H](O)[C@H](O)[C@H]2O[C@@H]2O[C@H](C(=O)O)[C@@H](O)[C@H](O)[C@H]2O)CC[C@]2(C)[C@H]3C(=O)C=C4[C@@H]5C[C@@](C)(C(=O)O)CC[C@]5(C)CC[C@@]4(C)[C@]3(C)CC[C@@H]12
107

Same question, CCCCC/C=C\C/C=C\C/C=C\C/C=C\CCCCN1C(=O)C=CC1=O [N-Arachidonylmaleimide] this time
94.6

Try N#Cc1ccnc(N2C(=O)CC[C@H]2C(=O)N(c2cncc(F)c2)C(C(=O)NC2CC(F)(F)C2)c2ccccc2Cl)c1 (stereo partly specified) next.
107

----------
Please provide measured cell viability for the entries that follow.
Tested on: KU-812
Test: cell viability (% survival relative to DMSO control, bortezomib = 0%); higher = less cytotoxic
Conditions: 1000 nM; 72 h
Response body: numeric value in %, unit text excluded.

Notebook entry, KU-812 assay: cell viability of C[C@](N)(Cc1ccc(O)cc1)C(=O)O = ?
91.9

One more compound: CC(C)(C#N)c1cc(Cn2cncn2)cc(C(C)(C)C#N)c1
90.5

Try the compound CCOC(=O)c1ccc(-c2ccc(OC(=O)N(C)Cc3cccc(-c4ccncc4)c3)cc2)cc1
91.6
